- target of assay: T1, human CD3 on human T cells (Jurkat) (human, UniProt P07766 23-207; P04234 22-171; P09693 23-182)
- T1 construct: whole, on cells; also called huCD3+; cell surface CD3 on human (Jurkat) T cells
- T1 sequence (P07766 23-207, chain 1 of 3): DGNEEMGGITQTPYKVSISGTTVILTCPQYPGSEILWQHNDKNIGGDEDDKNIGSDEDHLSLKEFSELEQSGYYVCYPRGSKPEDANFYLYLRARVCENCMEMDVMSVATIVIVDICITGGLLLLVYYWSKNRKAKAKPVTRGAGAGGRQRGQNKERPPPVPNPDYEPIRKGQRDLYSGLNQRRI
- T1 sequence (P04234 22-171, chain 2 of 3): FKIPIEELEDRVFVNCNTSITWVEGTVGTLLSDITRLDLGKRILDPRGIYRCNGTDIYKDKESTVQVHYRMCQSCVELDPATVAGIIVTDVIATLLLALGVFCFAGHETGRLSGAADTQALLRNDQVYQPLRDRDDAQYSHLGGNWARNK
- T1 sequence (P09693 23-182, chain 3 of 3): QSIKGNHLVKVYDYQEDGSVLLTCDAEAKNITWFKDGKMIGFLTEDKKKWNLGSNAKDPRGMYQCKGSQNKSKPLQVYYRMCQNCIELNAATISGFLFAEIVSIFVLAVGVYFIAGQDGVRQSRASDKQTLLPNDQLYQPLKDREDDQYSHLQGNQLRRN
- assay details: flow cytometry, Jurkat cells, 40 nM antibody
# MFI listing for each entry below

Please review the entries below; each comes with its answer.
{"binder": "HuL10H2 (Fab, V domains shown, Humanized Fab expressed in Expi293F; also called VL10 + VH2 humanized Fab) VH: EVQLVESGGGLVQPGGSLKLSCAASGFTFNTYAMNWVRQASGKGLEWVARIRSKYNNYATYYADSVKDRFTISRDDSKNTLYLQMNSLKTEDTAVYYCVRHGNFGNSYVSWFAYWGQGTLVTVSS VL: QAVVTQEPSLTTSPGGTVTLTCRSSTGAVTTSNYANWVQQKPDHLFTGLIGGTNKRAPGVPARFSGSLIGDKAALTISGAQPEDEAEYYCALWYSNLWVFGGGTKLTVL", "MFI": 12700}
{"binder": "HuL1H1 (Fab, V domains shown, Detected with anti-human kappa; also called VL1 + VH1 humanized Fab) VH: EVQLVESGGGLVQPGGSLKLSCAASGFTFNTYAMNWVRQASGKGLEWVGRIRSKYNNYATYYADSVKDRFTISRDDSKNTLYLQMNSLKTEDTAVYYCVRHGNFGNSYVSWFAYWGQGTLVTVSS VL: QAVVTQEPSLTVSPGGTVTLTCGSSTGAVTTSNYANWFQQKPGQAPRTLIYGTNKRAPWTPARFSGSLLGGKAALTISGAQPEDEAEYYCALWYSNLWVFGGGTKLTVL", "MFI": 1450}

Reported MFI of Murine anti-CD3 (antibody, V domains shown, also called murine anti-CD3 VL/VH) VH: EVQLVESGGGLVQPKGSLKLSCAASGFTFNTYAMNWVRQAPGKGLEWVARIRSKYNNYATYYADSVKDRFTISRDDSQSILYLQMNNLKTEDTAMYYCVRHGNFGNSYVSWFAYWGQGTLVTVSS VL: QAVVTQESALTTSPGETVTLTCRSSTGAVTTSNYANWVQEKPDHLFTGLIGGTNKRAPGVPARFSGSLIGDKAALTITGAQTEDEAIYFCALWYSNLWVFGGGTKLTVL : 41400
